Molecular target: recombinant human HDAC6 (Homo sapiens)
Sequence (Q9UBN7 1-1215): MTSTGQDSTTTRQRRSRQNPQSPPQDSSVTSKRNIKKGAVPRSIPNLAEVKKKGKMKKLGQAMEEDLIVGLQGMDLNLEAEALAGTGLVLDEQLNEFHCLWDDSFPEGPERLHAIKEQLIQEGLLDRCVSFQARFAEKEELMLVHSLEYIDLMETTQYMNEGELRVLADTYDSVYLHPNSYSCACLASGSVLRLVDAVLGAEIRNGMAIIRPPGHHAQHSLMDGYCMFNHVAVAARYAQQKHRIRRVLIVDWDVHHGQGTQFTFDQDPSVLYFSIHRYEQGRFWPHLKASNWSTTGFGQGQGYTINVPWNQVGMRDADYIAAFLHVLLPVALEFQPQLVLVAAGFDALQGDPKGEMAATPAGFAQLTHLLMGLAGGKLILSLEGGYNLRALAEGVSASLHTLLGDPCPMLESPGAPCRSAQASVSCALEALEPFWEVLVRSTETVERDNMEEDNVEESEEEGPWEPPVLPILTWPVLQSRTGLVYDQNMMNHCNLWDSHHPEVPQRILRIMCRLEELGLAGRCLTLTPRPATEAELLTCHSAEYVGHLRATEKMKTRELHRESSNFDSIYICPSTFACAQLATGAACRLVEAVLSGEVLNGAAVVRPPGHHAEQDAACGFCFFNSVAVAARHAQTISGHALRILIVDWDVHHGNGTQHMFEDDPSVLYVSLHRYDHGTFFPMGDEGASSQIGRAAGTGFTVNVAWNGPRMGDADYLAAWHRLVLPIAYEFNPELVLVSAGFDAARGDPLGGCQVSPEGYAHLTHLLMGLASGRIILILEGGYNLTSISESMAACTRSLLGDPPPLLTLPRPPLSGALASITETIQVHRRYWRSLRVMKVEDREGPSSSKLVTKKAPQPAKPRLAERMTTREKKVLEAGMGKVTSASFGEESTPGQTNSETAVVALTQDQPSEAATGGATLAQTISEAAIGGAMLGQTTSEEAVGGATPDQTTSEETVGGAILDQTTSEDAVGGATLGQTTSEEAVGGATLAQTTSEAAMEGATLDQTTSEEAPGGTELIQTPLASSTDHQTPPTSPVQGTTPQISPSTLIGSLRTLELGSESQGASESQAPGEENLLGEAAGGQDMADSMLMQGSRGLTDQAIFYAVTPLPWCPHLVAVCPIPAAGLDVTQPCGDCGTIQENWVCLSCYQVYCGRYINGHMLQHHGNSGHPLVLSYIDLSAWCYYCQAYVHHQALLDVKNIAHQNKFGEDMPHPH
Assay: Enzymatic screening on recombinant human HDAC6
Format: biochemical
Details: Table 2; read-out: HDAC6 IC50
READOUT_KIND: IC50 (nM)

As a guide, the following entries are already answered.
MOLECULE	ASSAY_SYSTEM	UNIT_SYMBOL	IC50
O=C(NO)c1ccc(Cn2nnc(-c3cc4ccccc4s3)n2)cc1	recombinant human HDAC6 (Homo sapiens)	nM	6
O=C(NO)c1ccc(Cn2nnc(-c3ccc(Cl)s3)n2)cc1	recombinant human HDAC6 (Homo sapiens)	nM	6
Cn1c(Sc2c(F)cc(C(=O)NO)cc2F)nnc1-c1ccc(CN2CCCCC2)o1	recombinant human HDAC6 (Homo sapiens)	nM	6
O=C(NO)c1cc(F)c(Cn2nnnc2-c2nccc3ccccc23)c(F)c1	recombinant human HDAC6 (Homo sapiens)	nM	7
Nc1ccc(-c2nnnn2Cc2ccc(C(=O)NO)cc2)cc1	recombinant human HDAC6 (Homo sapiens)	nM	8
O=C(NO)c1cc(F)c(Sc2nnc(-c3ccccc3F)n2Cc2ccco2)c(F)c1	recombinant human HDAC6 (Homo sapiens)	nM	16

I: CN1CCN(c2cccc(-c3nnc(Sc4c(F)cc(C(=O)NO)cc4F)n3C)c2)CC1
II: CCN(CC)S(=O)(=O)c1cccc(-c2nnc(Sc3ccc(C(=O)NO)cc3)n2C)c1
Prompt: Select the item whose IC50 value is smaller, choosing between I and II . Mark your answer with the label of the selected entry.
Completion: II
(II: 6 nM, I: 9 nM)

I: CCN(CC)S(=O)(=O)c1cccc(-c2nnc(Sc3ccc(C(=O)NO)cc3)n2N)c1
II: Cn1c(Sc2c(F)cc(C(=O)NO)cc2F)nnc1-c1cc2ccccc2cn1
III: CC1(C)CC(=O)c2c(S(C)(=O)=O)sc(-c3nnn(Cc4ccc(C(=O)NO)cc4)n3)c2C1
Prompt: Hi! Can you put these in order of IC50, lowest number first? I'd appreciate it if you listed the labels in the requested order.
Completion: II, I, III

P: O=C(NO)c1ccc(Cc2noc(-c3ccccc3)n2)cc1
Q: O=C(NO)c1ccc(Cc2nnc(-c3ccc(F)cc3F)o2)cc1
Prompt: Could you tell me which of these two has the smaller IC50 figure? First: P Second: Q Answer with the label corresponding to your selection.
Completion: Q
(Q: 6 nM, P: 9 nM)

I: Cn1c(Sc2c(F)cc(C(=O)NO)cc2F)nnc1-c1ccc(CCN2CCCC2)nc1
II: O=C(NO)c1cc(F)c(Cn2nnc(Cc3ccccn3)n2)c(F)c1.O=C(O)C(F)(F)F
Prompt: Two entries are listed, I and II . Which one carries the higher IC50? # respond with the chosen item's label
Completion: II
(II: 10 nM, I: 7 nM)

I: Cn1c(Sc2c(F)cc(C(=O)NO)cc2F)nnc1-c1ccc(CN2CCCC2)o1
II: O=C(NO)c1cc(F)c(Sc2nnc(N3CCOCC3)n2Cc2ccccc2)c(F)c1
Prompt: Between I and II , which one has the lower reported IC50 value? State your choice using its label.
Completion: I

P: O=C(NO)c1ccc(Cc2noc(-c3ccnc(N4CCOCC4)c3)n2)cc1
Q: COc1ccc(-c2nnn(Cc3ccc(C(=O)NO)cc3)n2)cc1OCc1ccccc1
Prompt: Problem: Given the entries P and Q , determine which has the lower reported IC50. Label of pick, please.
Completion: P
(P: 6 nM, Q: 9 nM)

Value source: patent US11351178B2
